This listing pairs sequences with measured binding signal.
molecular target: ZNF721 DBD1 (Homo sapiens, UniProt Q8TF20-2 29-461); experiment: HT-SELEX; 20 mM HEPES pH 7, 140 mM KCl, 5 mM NaCl, 1 mM K2HPO4, 2 mM MgSO4, 100 uM EGTA, ZnSO4, 0.1% Tween20; room temperature, 1 h; high values mean tight binding; conditions: protein: ivt; tags: eGFP (N-terminal); dsDNA, one strand shown
Sequence (Q8TF20 17-449): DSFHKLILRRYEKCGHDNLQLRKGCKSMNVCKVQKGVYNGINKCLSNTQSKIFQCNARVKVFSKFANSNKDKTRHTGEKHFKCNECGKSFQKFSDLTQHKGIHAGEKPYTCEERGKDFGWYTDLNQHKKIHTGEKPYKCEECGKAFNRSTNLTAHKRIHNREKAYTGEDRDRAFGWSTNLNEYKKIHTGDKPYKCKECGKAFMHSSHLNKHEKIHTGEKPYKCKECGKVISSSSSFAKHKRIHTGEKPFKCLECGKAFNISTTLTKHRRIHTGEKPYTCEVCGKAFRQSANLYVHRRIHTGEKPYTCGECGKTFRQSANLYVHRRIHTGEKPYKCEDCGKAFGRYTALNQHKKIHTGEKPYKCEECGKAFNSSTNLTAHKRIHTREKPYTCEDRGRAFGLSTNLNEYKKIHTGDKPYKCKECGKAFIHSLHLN
propertyMeasured: binding signal (relative 10-mer count)

>>> print(df.to_string())
    orderedresidues                           targetundertest  measvalue
 0       CGCCCCCACC  ZNF721 DBD1 (Homo sapiens, UniProt Q8TF20-2 29-461)    0.00945
 1       GCATACCCTA  ZNF721 DBD1 (Homo sapiens, UniProt Q8TF20-2 29-461)     0.0231
 2       CCCCCACGCC  ZNF721 DBD1 (Homo sapiens, UniProt Q8TF20-2 29-461)    0.00688
 3       CATCCCACCC  ZNF721 DBD1 (Homo sapiens, UniProt Q8TF20-2 29-461)    0.00527
 4       CCCCTCTCCC  ZNF721 DBD1 (Homo sapiens, UniProt Q8TF20-2 29-461)    0.00454
 5       CCACCACCCA  ZNF721 DBD1 (Homo sapiens, UniProt Q8TF20-2 29-461)     0.0105
 6       CCACCACCAC  ZNF721 DBD1 (Homo sapiens, UniProt Q8TF20-2 29-461)    0.00688
 7       CACCACCCCG  ZNF721 DBD1 (Homo sapiens, UniProt Q8TF20-2 29-461)    0.00518
 8       CCCCGACCAC  ZNF721 DBD1 (Homo sapiens, UniProt Q8TF20-2 29-461)    0.00422
 9       AAAAAGCTCA  ZNF721 DBD1 (Homo sapiens, UniProt Q8TF20-2 29-461)     0.0408
10       CTTCATACAC  ZNF721 DBD1 (Homo sapiens, UniProt Q8TF20-2 29-461)      0.384
11       CAACCACCCC  ZNF721 DBD1 (Homo sapiens, UniProt Q8TF20-2 29-461)    0.00486
12       CCGACCCACC  ZNF721 DBD1 (Homo sapiens, UniProt Q8TF20-2 29-461)    0.00367
13       CCACGCCACC  ZNF721 DBD1 (Homo sapiens, UniProt Q8TF20-2 29-461)    0.00353
14       CCCCCCTCCC  ZNF721 DBD1 (Homo sapiens, UniProt Q8TF20-2 29-461)     0.0139
15       CCCCCTGCCC  ZNF721 DBD1 (Homo sapiens, UniProt Q8TF20-2 29-461)    0.00628
16       AGGGGTGGTG  ZNF721 DBD1 (Homo sapiens, UniProt Q8TF20-2 29-461)    0.00532
17       CACACCCACC  ZNF721 DBD1 (Homo sapiens, UniProt Q8TF20-2 29-461)    0.00651
18       ATAAAAAAGC  ZNF721 DBD1 (Homo sapiens, UniProt Q8TF20-2 29-461)     0.0221
19       AAAAAAAAGA  ZNF721 DBD1 (Homo sapiens, UniProt Q8TF20-2 29-461)    0.00757
20       CCGCCCCCCA  ZNF721 DBD1 (Homo sapiens, UniProt Q8TF20-2 29-461)     0.0066
21       GGGGGAGGGA  ZNF721 DBD1 (Homo sapiens, UniProt Q8TF20-2 29-461)    0.00936
22       AAAAAAGCAG  ZNF721 DBD1 (Homo sapiens, UniProt Q8TF20-2 29-461)     0.0227
23       AAAACAGTAT  ZNF721 DBD1 (Homo sapiens, UniProt Q8TF20-2 29-461)    0.00124
24       AAAAAAAGGC  ZNF721 DBD1 (Homo sapiens, UniProt Q8TF20-2 29-461)    0.00225
25       CGCCCCCCCC  ZNF721 DBD1 (Homo sapiens, UniProt Q8TF20-2 29-461)    0.00527
26       CCGTCCCACC  ZNF721 DBD1 (Homo sapiens, UniProt Q8TF20-2 29-461)    0.00546
27       AGCCCACCCC  ZNF721 DBD1 (Homo sapiens, UniProt Q8TF20-2 29-461)    0.00583
28       CCGCCCCCAC  ZNF721 DBD1 (Homo sapiens, UniProt Q8TF20-2 29-461)    0.00821
29       CCACCCCCAA  ZNF721 DBD1 (Homo sapiens, UniProt Q8TF20-2 29-461)    0.00546
30       CCCGCCCCGC  ZNF721 DBD1 (Homo sapiens, UniProt Q8TF20-2 29-461)    0.00518
31       AGGTGGGGTG  ZNF721 DBD1 (Homo sapiens, UniProt Q8TF20-2 29-461)    0.00532
32       CTGCCCACCC  ZNF721 DBD1 (Homo sapiens, UniProt Q8TF20-2 29-461)    0.00394
33       CCCGCCCACC  ZNF721 DBD1 (Homo sapiens, UniProt Q8TF20-2 29-461)     0.0105
34       CCACACACCC  ZNF721 DBD1 (Homo sapiens, UniProt Q8TF20-2 29-461)    0.00321
35       CCTCCCCCGC  ZNF721 DBD1 (Homo sapiens, UniProt Q8TF20-2 29-461)    0.00647
36       AAAAGCGTAC  ZNF721 DBD1 (Homo sapiens, UniProt Q8TF20-2 29-461)     0.0294
37       CTCCCCCGCC  ZNF721 DBD1 (Homo sapiens, UniProt Q8TF20-2 29-461)     0.0056
38       AGCATCCCCA  ZNF721 DBD1 (Homo sapiens, UniProt Q8TF20-2 29-461)     0.0121
39       CTCCCCCCCC  ZNF721 DBD1 (Homo sapiens, UniProt Q8TF20-2 29-461)    0.00761
40       CTCCACCCCC  ZNF721 DBD1 (Homo sapiens, UniProt Q8TF20-2 29-461)    0.00812
41       GCCACCCCAC  ZNF721 DBD1 (Homo sapiens, UniProt Q8TF20-2 29-461)    0.00472
42       AGGGGGGCGG  ZNF721 DBD1 (Homo sapiens, UniProt Q8TF20-2 29-461)    0.00417
43       CACCCCCCCC  ZNF721 DBD1 (Homo sapiens, UniProt Q8TF20-2 29-461)    0.00789
44       AAAAAGGCAT  ZNF721 DBD1 (Homo sapiens, UniProt Q8TF20-2 29-461)    0.00266
45       CTCCCCACCC  ZNF721 DBD1 (Homo sapiens, UniProt Q8TF20-2 29-461)    0.00936
46       GAAAAAAACA  ZNF721 DBD1 (Homo sapiens, UniProt Q8TF20-2 29-461)    0.00289
47       CCCACCAACC  ZNF721 DBD1 (Homo sapiens, UniProt Q8TF20-2 29-461)    0.00794
48       ACCCACCCCG  ZNF721 DBD1 (Homo sapiens, UniProt Q8TF20-2 29-461)    0.00491
49       AGGGGCGGGG  ZNF721 DBD1 (Homo sapiens, UniProt Q8TF20-2 29-461)     0.0044
50       CCCACTCCCC  ZNF721 DBD1 (Homo sapiens, UniProt Q8TF20-2 29-461)    0.00656
51       CCACACCACC  ZNF721 DBD1 (Homo sapiens, UniProt Q8TF20-2 29-461)     0.0055
52       CCCCCGCCCA  ZNF721 DBD1 (Homo sapiens, UniProt Q8TF20-2 29-461)    0.00638
53       CCCCACACCC  ZNF721 DBD1 (Homo sapiens, UniProt Q8TF20-2 29-461)       0.01
54       CCCACCCCTC  ZNF721 DBD1 (Homo sapiens, UniProt Q8TF20-2 29-461)       0.01
55       CCCCCCCGCC  ZNF721 DBD1 (Homo sapiens, UniProt Q8TF20-2 29-461)    0.00706
56       CAGCGTATCC  ZNF721 DBD1 (Homo sapiens, UniProt Q8TF20-2 29-461)    0.00174
57       CCCGCCCGCC  ZNF721 DBD1 (Homo sapiens, UniProt Q8TF20-2 29-461)     0.0044
58       AAAAAGCAGT  ZNF721 DBD1 (Homo sapiens, UniProt Q8TF20-2 29-461)     0.0214
59       CACCCACCAC  ZNF721 DBD1 (Homo sapiens, UniProt Q8TF20-2 29-461)    0.00949
60       CAAAAAAAGC  ZNF721 DBD1 (Homo sapiens, UniProt Q8TF20-2 29-461)     0.0258
61       ACAAAAAACA  ZNF721 DBD1 (Homo sapiens, UniProt Q8TF20-2 29-461)    0.00197
62       GCCCACCCAC  ZNF721 DBD1 (Homo sapiens, UniProt Q8TF20-2 29-461)     0.0061
63       CCGCCGCCCC  ZNF721 DBD1 (Homo sapiens, UniProt Q8TF20-2 29-461)    0.00546
64       CCCCCTCCAC  ZNF721 DBD1 (Homo sapiens, UniProt Q8TF20-2 29-461)    0.00908
65       CCCCCCACAC  ZNF721 DBD1 (Homo sapiens, UniProt Q8TF20-2 29-461)    0.00656
66       CAAAAAAAAC  ZNF721 DBD1 (Homo sapiens, UniProt Q8TF20-2 29-461)    0.00243
67       ACCCACCTCC  ZNF721 DBD1 (Homo sapiens, UniProt Q8TF20-2 29-461)    0.00505
68       CCCCCCTGCC  ZNF721 DBD1 (Homo sapiens, UniProt Q8TF20-2 29-461)    0.00399
69       CACCACCCAC  ZNF721 DBD1 (Homo sapiens, UniProt Q8TF20-2 29-461)     0.0105
70       ACAGCGTACC  ZNF721 DBD1 (Homo sapiens, UniProt Q8TF20-2 29-461)    0.00115
71       CCGAAAAAAA  ZNF721 DBD1 (Homo sapiens, UniProt Q8TF20-2 29-461)     0.0118
72       CCCCTCCACC  ZNF721 DBD1 (Homo sapiens, UniProt Q8TF20-2 29-461)     0.0117
73       GCCTCCCCCC  ZNF721 DBD1 (Homo sapiens, UniProt Q8TF20-2 29-461)    0.00518
74       CACCCCCTCC  ZNF721 DBD1 (Homo sapiens, UniProt Q8TF20-2 29-461)    0.00899
75       CCCACACCCA  ZNF721 DBD1 (Homo sapiens, UniProt Q8TF20-2 29-461)    0.00468
76       CACCCCCCAC  ZNF721 DBD1 (Homo sapiens, UniProt Q8TF20-2 29-461)     0.0103
77       CCCCCCCCTC  ZNF721 DBD1 (Homo sapiens, UniProt Q8TF20-2 29-461)    0.00619
78       CCTCCCTCCC  ZNF721 DBD1 (Homo sapiens, UniProt Q8TF20-2 29-461)    0.00931
79       CCACCCTCCC  ZNF721 DBD1 (Homo sapiens, UniProt Q8TF20-2 29-461)     0.0111
80       CCCGCCACCC  ZNF721 DBD1 (Homo sapiens, UniProt Q8TF20-2 29-461)     0.0125
81       CAGGGGTGGG  ZNF721 DBD1 (Homo sapiens, UniProt Q8TF20-2 29-461)    0.00482
82       CCCACCACAC  ZNF721 DBD1 (Homo sapiens, UniProt Q8TF20-2 29-461)    0.00583
83       ACCCCCACCG  ZNF721 DBD1 (Homo sapiens, UniProt Q8TF20-2 29-461)    0.00367
84       GCCCCCCACC  ZNF721 DBD1 (Homo sapiens, UniProt Q8TF20-2 29-461)    0.00693
85       CCCCCTCACC  ZNF721 DBD1 (Homo sapiens, UniProt Q8TF20-2 29-461)    0.00624
